Tested on: BaF3 parental cells
Protocol details: In vitro cell proliferation potency assay, Cell Titer Glo (Example 902)
Format: cell-based, murine
Run parameters: Mus musculus; BaF3 parental line, medium with 2 ng/mL mIL-3, incubated overnight; read-out: Prolif BaF3 IL3 (IC50)
Endpoint name: pIC50
# pIC50: negative log10 of molar concentration; output just the value

Compound | Endpoint name | Endpoint result
Cn1ncc(NC(=O)c2nc(-c3c(F)cccc3F)sc2N)c1OC1CCNCC1 | pIC50 | 4.60
Cn1ncc(NC(=O)c2nc(-c3ccccc3F)cnc2N)c1N1CCC[C@H](N)C1 | pIC50 | 5.28
Cn1ncc(NC(=O)c2nc(-c3c(F)cccc3F)sc2N)c1N1CC[C@H](CN)C1 | pIC50 | 5.03

Ask: // lookup pIC50 | system=BaF3 parental cells | key= Cn1ncc(NC(=O)c2nc(-c3c(F)cccc3F)sc2N)c1OCC1CCNCC1
Reply: 5.21

Ask: // lookup pIC50 | system=BaF3 parental cells | key= Cn1ncc(NC(=O)c2nc(-c3c(F)cccc3F)sc2N)c1N1CCC(CN)CC1
Reply: 4.60

Ask: // lookup pIC50 | system=BaF3 parental cells | key= Cn1ncc(NC(=O)c2nc(-c3ccccc3F)cnc2N)c1N1CCC[C@H](N)CC1
Reply: 5.96

Ask: // lookup pIC50 | system=BaF3 parental cells | key= Cn1ncc(NC(=O)c2nc(-c3ccccc3F)ccc2N)c1N1CCC[C@H](N)C1
Reply: 4.88

Ask: // lookup pIC50 | system=BaF3 parental cells | key= Cn1ncc(NC(=O)c2nc(-c3ccccc3F)ccc2N)c1N1CC[C@@H](CN)C1
Reply: 5.11

Ask: // lookup pIC50 | system=BaF3 parental cells | key= Cn1ncc(NC(=O)c2nc(-c3ccccc3F)ccc2N)c1N1CCC(N)CC1
Reply: 4.92

Ask: // lookup pIC50 | system=BaF3 parental cells | key= Cn1ncc(NC(=O)c2nc(-c3ccccc3F)ccc2N)c1N1CC[C@H](CN)C1
Reply: 5.23

* * *

A short record of pKi observed with PIM1 (Homo sapiens (Human)) follows.
Sequence (P11309 whole entry): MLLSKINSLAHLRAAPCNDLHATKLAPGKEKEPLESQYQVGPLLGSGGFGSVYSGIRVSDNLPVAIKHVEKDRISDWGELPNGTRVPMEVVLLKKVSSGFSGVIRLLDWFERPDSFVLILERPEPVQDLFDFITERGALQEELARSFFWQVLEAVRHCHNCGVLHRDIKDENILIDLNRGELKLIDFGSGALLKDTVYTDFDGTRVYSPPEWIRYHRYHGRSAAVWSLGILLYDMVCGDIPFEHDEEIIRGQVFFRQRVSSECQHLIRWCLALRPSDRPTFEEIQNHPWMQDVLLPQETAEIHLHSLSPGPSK
# pKi: negative log10 of molar concentration; output just the value

Known pKi results, listed for orientation:
Compound | Endpoint result
Nc1sc(-c2c(F)cccc2F)nc1C(=O)Nc1cn[nH]c1N1CCC[C@H](N)C1 | 8.19
Cn1ncc(NC(=O)c2nc(-c3ccccc3F)ccc2N)c1N1CCCC(N)CC1 (stereo not shown) | 9.94

Ask: // lookup pKi | system=PIM1 (Homo sapiens (Human)) | key= Nc1sc(-c2c(F)cccc2F)nc1C(=O)Nc1cnn(CCF)c1
Reply: 7.92

Ask: // lookup pKi | system=PIM1 (Homo sapiens (Human)) | key= Cn1ncc(NC(=O)c2nc(-c3ccccc3F)ccc2N)c1N1CCC[C@@H](N)C1
Reply: 9.61

* * *

A short record of Ki observed with PIM3 (Homo sapiens (Human), UniProt Q86V86) follows.
The response must be a number in nM with no trailing unit.

Compound | Ki / nM
Cn1ncc(NC(=O)c2nc(-c3ccccc3F)ccc2N)c1N1CCC[C@H](N)CC1 | 0.245
Cn1ncc(NC(=O)c2nc(-c3c(F)cccc3F)sc2N)c1C1CCNCC1 | 6.12

Let's switch to this compound now.
Ask: // query Ki value for entry CN1CCC(c2c(NC(=O)c3nc(-c4c(F)cccc4F)sc3N)cnn2C)CC1
Reply: 5.26

* * *

Experimental system: PIM3 (Homo sapiens (Human), UniProt Q86V86)
Here, each record is paired with measured log10(Ki) data.
Remember, log10 of Ki, in nM.

Known log10(Ki) results, listed for orientation:
Compound | Endpoint name | Endpoint result
Cn1ncc(NC(=O)c2ccc(F)c(-c3c(F)cccc3F)n2)c1N1CCC[C@@H](N)CC1 | log10(Ki) | 0.39
Cn1ncc(NC(=O)c2nc(-c3ccccc3F)ccc2N)c1N1CCC[C@H](CN)C1 | log10(Ki) | 0.12
Cn1ncc(NC(=O)c2nc(-c3ccccc3F)ccc2N)c1N1CCCC(N)CC1 (centres unmarked) | log10(Ki) | -0.80
Cn1ncc(NC(=O)c2nc(Cl)cnc2N)c1N1CCC[C@H](N)C1 | log10(Ki) | 2.33
Cn1ncc(NC(=O)c2nc(-c3ccccc3F)cnc2N)c1N1CCC[C@H](N)C1 | log10(Ki) | -0.52

Ask: // query log10(Ki) value for entry Cn1ncc(NC(=O)c2nc(-c3c(F)cccc3F)sc2N)c1N1CC[C@H](CN)C1
Reply: -0.46

Ask: // query log10(Ki) value for entry Cn1ncc(NC(=O)c2nc(-c3c(F)cccc3F)sc2N)c1OC1CCNCC1
Reply: 0.04

Ask: // query log10(Ki) value for entry Cn1ncc(NC(=O)c2nc(-c3c(F)cccc3F)sc2N)c1NCC1CCNCC1
Reply: 0.76

* * *

Test system: BaF3 PIM1 cells
Protocol details: In vitro cell proliferation potency assay, Cell Titer Glo (Example 902)
Assay type: cell-based, murine
Run parameters: Mus musculus; BaF3 line transfected with PIM1, incubated overnight; read-out: Prolif BaF3 PIM1 (IC50)
pIC50: −log10 of the molar value.
Label true when pIC50 >= 6; otherwise false.

Use these answered entries as a reference point.
Compound | Experimental system | Label value
Cn1ncc(NC(=O)c2nc(-c3c(F)cccc3F)sc2N)c1OCC1CCNCC1 [Example 115] | BaF3 PIM1 cells | false
Nc1sc(-c2c(F)cccc2F)nc1C(=O)Nc1cn[nH]c1N1CCC[C@H](N)C1 [Example 103] | BaF3 PIM1 cells | false
Cn1ncc(NC(=O)c2nc(-c3ccccc3F)cnc2N)c1N1CCC[C@@H](N)CC1 [Example 141] | BaF3 PIM1 cells | true
Cn1ncc(NC(=O)c2nc(-c3ccccc3F)cnc2N)c1N1CCC[C@H](N)CC1 [Example 143] | BaF3 PIM1 cells | true

Ask: Could you please find out whether Cn1ncc(NC(=O)c2nc(-c3ccccc3F)ccc2N)c1N1CC[C@H](CN)C1 [Example 136] has pIC50 that meets 6 or exceeds it?
Reply: true

Ask: Could you please find out whether Cn1ncc(NC(=O)c2nc(-c3ccccc3F)ccc2N)c1N1CCC[C@H](N)C1 [Example 111] has pIC50 that meets 6 or exceeds it?
Reply: false

Ask: Could you please find out whether Cn1ncc(NC(=O)c2nc(-c3c(F)cccc3F)sc2N)c1N1CCC(CN)CC1 [Example 133] has pIC50 that meets 6 or exceeds it?
Reply: true

* * *

Here, each record is paired with measured IC50 data.
Tested on: BaF3 parental cells
Protocol details: In vitro cell proliferation potency assay, Cell Titer Glo (Example 902)
Format: cell-based, murine
Run parameters: Mus musculus; BaF3 parental line, medium with 2 ng/mL mIL-3, incubated overnight; read-out: Prolif BaF3 IL3 (IC50)
The response must be a number in µM with no trailing unit.

Known IC50 results, listed for orientation:
Molecule | Experimental system | IC50 / µM
Cn1ncc(NC(=O)c2nc(-c3ccccc3F)cnc2N)c1N1CCC(N)CC1 | BaF3 parental cells | 11.9
Cn1ncc(NC(=O)c2nc(-c3ccccc3F)ccc2N)c1N1CCC[C@@H](N)CC1 | BaF3 parental cells | 3.8
Cn1ncc(NC(=O)c2nc(-c3ccccc3F)ccc2N)c1N1CCCC(N)CC1 (centres unmarked) | BaF3 parental cells | 5.5
Cn1ncc(NC(=O)c2nc(-c3c(F)cccc3F)sc2N)c1N1CCC(N)CC1 | BaF3 parental cells | 4.3
Cn1ncc(NC(=O)c2nc(-c3ccccc3F)cnc2N)c1N1CCC[C@@H](N)CC1 | BaF3 parental cells | 1.1

Ask: // lookup IC50 | system=BaF3 parental cells | key= Cn1ncc(NC(=O)c2nc(-c3ccccc3F)ccc2N)c1N1CCC[C@H](CN)C1
Reply: 21.5

Ask: // lookup IC50 | system=BaF3 parental cells | key= Nc1sc(-c2c(F)cccc2F)nc1C(=O)Nc1cn[nH]c1N1CCC[C@H](N)C1
Reply: 10.6

Ask: // lookup IC50 | system=BaF3 parental cells | key= Cn1ncc(NC(=O)c2nc(-c3c(F)cccc3F)sc2N)c1N1CCC[C@H](N)C1
Reply: 6.6

* * *

Tested on: BaF3 PIM1 cells
Protocol details: In vitro cell proliferation potency assay, Cell Titer Glo (Example 902)
Assay type: cell-based, murine
Run parameters: Mus musculus; BaF3 line transfected with PIM1, incubated overnight; read-out: Prolif BaF3 PIM1 (IC50)
Endpoint name: IC50

Known IC50 results, listed for orientation:
Compound | IC50
Cn1ncc(NC(=O)c2nc(-c3ccccc3F)cnc2N)c1N1CCC(N)CC1 | 1100 nM
Cn1ncc(NC(=O)c2nc(-c3ccccc3F)cnc2N)c1N1CCC[C@H](N)C1 | 1300 nM

Let's switch to this molecule now.
Ask: // query IC50 value for entry Cn1ncc(NC(=O)c2nc(-c3c(F)cccc3F)sc2N)c1N1CC[C@H](CN)C1
Reply: 660 nM
